Source listed as the supplement of paper PMC10567573.

B1: FBXO3 (parent)
chain: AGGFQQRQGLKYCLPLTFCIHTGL

Variants of: B1
protocol: protein stability index of a GFP-peptide fusion (GPS, HEK-293T) (PSI 1-6); higher = more stable;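 also: lentivirally expressed fusions sorted by FACS into six bins by GFP to DsRed ratio, PSI derived from sequencing read proportions per bin multiplied by bin number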
conditions: c terminus: a fixed tail appended
Parameter threshold = 3. Response is fulfilled when protein stability index meets or exceeds it, else not fulfilled.

# count of solved cases: 5
variant-description | assigned-class
Q5K | not fulfilled
Q8C | fulfilled
G9R | not fulfilled
H21Q | not fulfilled
G9Q | not fulfilled

# input Hi, just wondering whether F18T shows protein stability index of 3 or higher.
# output not fulfilled

# input Dear colleague, could you confirm whether H21F has protein stability index at or above 3?
# output fulfilled
